Each item that follows carries a reported GI50.
test system: SK-MEL-5; assay: panel of 60 human tumor cell lines, growth inhibition (Melanoma); conditions: Homo sapiens, SK-MEL-5
property: GI50 (µM)

>>> df
                               entry_smiles  property  units_of_measure  obs_value
0  C=C1C(=O)O[C@H]2[C@H]1CC/C(COC(=O)NCCCCCCO)=C\CC[C@@]1(C)O[C@@H]21      GI50                µM        6.8
1  C=C1C(=O)O[C@H]2[C@H]1CC/C(COC(=O)NCCN1CCCC1)=C\CC[C@@]1(C)O[C@@H]21      GI50                µM       15.5
2  C=C1C(=O)O[C@H]2[C@H]1CC/C(COC(=O)Nc1n[nH]c(SC)n1)=C\CC[C@@]1(C)O[C@@H]21      GI50                µM       3.13
3  C=C1C(=O)O[C@H]2[C@H]1CC/C(COC(=O)OCCCN1CCCCC1)=C\CC[C@@]1(C)O[C@@H]21      GI50                µM       10.6
